Quick reference for EC50 among some molecules
- target.under.test: Short transient receptor potential channel 4 (Mus musculus, UniProt Q9QUQ5)
- Sequence (Q9QUQ5 whole entry): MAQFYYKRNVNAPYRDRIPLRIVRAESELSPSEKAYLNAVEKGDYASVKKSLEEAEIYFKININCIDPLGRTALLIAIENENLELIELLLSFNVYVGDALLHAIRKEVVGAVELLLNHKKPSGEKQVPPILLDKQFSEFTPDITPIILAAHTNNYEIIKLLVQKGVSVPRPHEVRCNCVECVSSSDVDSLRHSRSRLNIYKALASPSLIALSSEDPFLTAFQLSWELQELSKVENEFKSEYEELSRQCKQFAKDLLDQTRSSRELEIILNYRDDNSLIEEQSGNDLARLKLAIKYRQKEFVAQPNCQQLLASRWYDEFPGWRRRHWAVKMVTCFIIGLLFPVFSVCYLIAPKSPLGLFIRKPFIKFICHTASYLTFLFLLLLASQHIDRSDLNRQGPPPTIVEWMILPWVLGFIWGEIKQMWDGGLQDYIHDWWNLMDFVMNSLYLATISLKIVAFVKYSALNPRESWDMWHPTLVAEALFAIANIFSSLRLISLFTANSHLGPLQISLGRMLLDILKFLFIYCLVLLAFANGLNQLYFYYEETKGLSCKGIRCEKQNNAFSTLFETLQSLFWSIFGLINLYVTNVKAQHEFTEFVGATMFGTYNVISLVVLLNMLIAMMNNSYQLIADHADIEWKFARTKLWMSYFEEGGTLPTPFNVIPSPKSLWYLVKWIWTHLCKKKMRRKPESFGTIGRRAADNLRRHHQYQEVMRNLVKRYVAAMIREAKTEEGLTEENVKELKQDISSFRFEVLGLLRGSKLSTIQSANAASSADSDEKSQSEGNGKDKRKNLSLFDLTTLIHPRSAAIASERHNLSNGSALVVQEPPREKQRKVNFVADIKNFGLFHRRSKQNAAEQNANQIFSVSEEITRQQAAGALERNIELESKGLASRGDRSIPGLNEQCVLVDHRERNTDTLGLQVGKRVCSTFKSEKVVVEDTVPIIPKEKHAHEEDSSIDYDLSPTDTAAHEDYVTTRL
- test.description: block of DAMGO-driven TRPC4 calcium entry – cell-based, HEK293 TRPC4/mu-opioid, Fluo-4 calcium, dose response (AID 434942);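 further: potency of inhibitors blocking the TRPC4 calcium response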
- Format: functional
Calls of active or inactive are those of the source. How the calls were made is not given here.

[
  {
    "molecule": "CCCCC(CC)C(=O)Nc1ncc([N+](=O)[O-])s1 (stereo not drawn)",
    "EC50": "7500 nM (active)"
  }
]

GET /values?readout=EC50&item= `c1ccc(Cn2c(CN3CCCC3)nc3ccccc32)cc1` 2110 nM (active)

GET /values?readout=EC50&item= CC1Oc2ccccc2C=C1/C=N/Nc1ccc(C(=O)O)cc1 (stereo not drawn) 2990 nM (active)

GET /values?readout=EC50&item= `O=C(Cc1ccccc1)Nc1ccccc1Sc1ccccc1` 1880 nM (active)

GET /values?readout=EC50&item= `Brc1ccc(N/N=C(/N=Nc2nn[nH]n2)c2ccccc2)cc1` 7500 nM (active)

GET /values?readout=EC50&item= COc1ccc(C(CNC(=O)Cc2ccc3ccccc3c2)N(C)C)cc1 (stereo not drawn) 53.3 nM (active)

GET /values?readout=EC50&item= `CCCCCCCNC(=O)COc1ccc2c(c1)C(=O)CC(C)(C)O2` 944 nM (active)

GET /values?readout=EC50&item= NC(=O)c1nsc(C(=O)N(Cc2ccccc2Cl)C(C(=O)NCC2CCCO2)c2ccc(O)cc2)c1N (stereo not drawn) 5960 nM (active)
